Assay: Superoxide radical anion formation by xanthine oxidase (NBT assay)
Assay type: biochemical
Settings: sample solution 5 mM in DMSO
Each item that follows carries a reported % Inhibition NBT.
measurement name: % Inhibition NBT (%)

>  <input smiles>
[Se]=C(NCc1ccccc1)NC12CC3CC(CC(C3)C1)C2

>  <measurement name>
% Inhibition NBT

>  <unit string>
%

>  <reported measurement>
56.52

$$$$
>  <input smiles>
[Se]=C(Nc1ccccc1)NC12CC3CC(CC(C3)C1)C2

>  <measurement name>
% Inhibition NBT

>  <unit string>
%

>  <reported measurement>
29.17

$$$$
>  <input smiles>
[Se]=C(Nc1ccccc1)Nc1ccc(C23CC4CC(CC(C4)C2)C3)cc1

>  <measurement name>
% Inhibition NBT

>  <unit string>
%

>  <reported measurement>
4.75

$$$$
>  <input smiles>
[Se]=C(NCC12CC3CC(CC(C3)C1)C2)Nc1ccccc1

>  <measurement name>
% Inhibition NBT

>  <unit string>
%

>  <reported measurement>
35.20

$$$$

###

Target: human recombinant sEH (Homo sapiens)
Sequence (P34913 whole entry): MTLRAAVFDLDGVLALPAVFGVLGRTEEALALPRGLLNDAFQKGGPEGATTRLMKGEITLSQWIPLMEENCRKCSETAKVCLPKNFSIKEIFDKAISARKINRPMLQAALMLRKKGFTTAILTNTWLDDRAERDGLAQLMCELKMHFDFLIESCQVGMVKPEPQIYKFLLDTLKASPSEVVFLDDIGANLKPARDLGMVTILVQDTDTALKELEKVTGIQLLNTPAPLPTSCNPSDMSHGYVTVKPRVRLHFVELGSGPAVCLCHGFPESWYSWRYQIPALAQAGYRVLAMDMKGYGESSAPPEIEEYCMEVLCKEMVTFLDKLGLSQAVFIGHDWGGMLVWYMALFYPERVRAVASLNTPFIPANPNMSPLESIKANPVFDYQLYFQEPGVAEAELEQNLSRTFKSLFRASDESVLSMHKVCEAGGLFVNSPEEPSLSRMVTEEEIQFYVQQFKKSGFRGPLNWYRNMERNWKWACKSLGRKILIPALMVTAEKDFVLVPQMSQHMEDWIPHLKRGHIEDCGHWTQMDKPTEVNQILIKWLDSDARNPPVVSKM
Experiment: Human sEH inhibition, kinetic fluorescent assay
Assay type: biochemical
Conditions: kinetic fluorescent assay; means of three separate experiments; read-out: Human sEH IC50
pIC50: −log10 of the molar value.
Each item that follows carries a reported pIC50.

>  <compound>
[Se]=C(Nc1ccccc1)Nc1ccc(C23CC4CC(CC(C4)C2)C3)cc1

>  <pIC50>
7.26

$$$$
>  <compound>
CC12CC3CC(C)(C1)CC(NC(=[Se])Nc1ccccc1)(C3)C2

>  <pIC50>
6.59

$$$$
>  <compound>
CC(NC(=[Se])NCc1ccccc1)C12CC3CC(CC(C3)C1)C2 (centres unmarked)

>  <pIC50>
6.56

$$$$
>  <compound>
[Se]=C(NCCC12CC3CC(CC(C3)C1)C2)NCc1ccccc1

>  <pIC50>
7.46

$$$$
>  <compound>
CC(NC(=[Se])Nc1ccccc1)C12CC3CC(CC(C3)C1)C2 (centres unmarked)

>  <pIC50>
5.92

$$$$
>  <compound>
[Se]=C(NCC12CC3CC(CC(C3)C1)C2)Nc1ccccc1

>  <pIC50>
6.88

$$$$
>  <compound>
[Se]=C(Nc1ccccc1)NC12CC3CC(CC(C3)C1)C2

>  <pIC50>
6.36

$$$$
>  <compound>
[Se]=C(NCc1ccccc1)Nc1ccc(C23CC4CC(CC(C4)C2)C3)cc1

>  <pIC50>
6.69

$$$$
>  <compound>
[Se]=C(NCCC12CC3CC(CC(C3)C1)C2)Nc1ccccc1

>  <pIC50>
7.31

$$$$
>  <compound>
CC12CC3CC(C)(C1)CC(NC(=[Se])NCc1ccccc1)(C3)C2

>  <pIC50>
7.31

$$$$
>  <compound>
[Se]=C(Nc1ccccc1)NC1C2CC3CC(C2)CC1C3 (centres unmarked)

>  <pIC50>
6.98

$$$$
>  <compound>
[Se]=C(NCc1ccccc1)NC12CC3CC(CC(C3)C1)C2

>  <pIC50>
6.68

$$$$
>  <compound>
[Se]=C(NCc1ccccc1)NCC12CC3CC(CC(C3)C1)C2

>  <pIC50>
6.70

$$$$
>  <compound>
[Se]=C(NCc1ccccc1)NC1C2CC3CC(C2)CC1C3 (centres unmarked)

>  <pIC50>
6.92

$$$$
